IC50 overview
Tested on: Ba/F3-FGFR1-transfected cells in the presence of 10 ng/ml murine IL3
Test: Ba/F3-FGFR1 (plus IL3) cellular proliferation counterscreen, Alamar Blue
Format: cell-based
Details: Mus musculus; plus IL3, 384 well; read-out: BAF3-FGFR 1 (PLUS IL3) 384 well pIC50 (converted)

{"Molecule": "COc1cc(OC)cc(N(CCNC(C)C)c2ccc3ncc(NCC4CCNCC4)nc3c2)c1 [Compound 161]", "Tgt": "Ba/F3-FGFR1-transfected cells in the presence of 10 ng/ml murine IL3", "IC50": "> 10 µM"}
{"Molecule": "COc1cc(OC)cc(N(CCNC(C)C)c2ccc3ncc(-c4ccncc4)nc3c2)c1 [Compound 12]", "Tgt": "Ba/F3-FGFR1-transfected cells in the presence of 10 ng/ml murine IL3", "IC50": "> 10 µM"}
{"Molecule": "COc1cc(OC)cc(N(CCNC(C)C)c2ccc3ncc(-c4ccc(N5CCN(C)CC5)nc4)nc3c2)c1 [Compound 170]", "Tgt": "Ba/F3-FGFR1-transfected cells in the presence of 10 ng/ml murine IL3", "IC50": "3.55 µM"}
{"Molecule": "COc1cc(OC)cc(N(CC2CC2)c2ccc3ncc(C(=O)N4CCC4)nc3c2)c1 [Compound 93]", "Tgt": "Ba/F3-FGFR1-transfected cells in the presence of 10 ng/ml murine IL3", "IC50": "> 10 µM"}
{"Molecule": "COc1cc(OC)cc(N(CC(OC(C)=O)C(F)(F)F)c2ccc3ncc(-c4cccnc4)nc3c2)c1 (single isomer, unassigned) [Compound 45]", "Tgt": "Ba/F3-FGFR1-transfected cells in the presence of 10 ng/ml murine IL3", "IC50": "> 10 µM"}

Look at this molecule and give its reported IC50. COc1cc(OC)cc(N(CCNC(C)C)c2ccc3ncc(-c4ccc(N5CCOCC5)nc4)nc3c2)c1 [Compound 168] 7.76 µM

Look at this molecule and give its reported IC50. COc1cc(OC)cc(N(CC2CC2)c2ccc3ncc(C#Cc4ccncc4)nc3c2)c1 [Compound 23] > 10 µM

====

Target: Ba/F3-FGFR1-transfected cells (Homo sapiens)
Sequence (P11362 whole entry, change not shown): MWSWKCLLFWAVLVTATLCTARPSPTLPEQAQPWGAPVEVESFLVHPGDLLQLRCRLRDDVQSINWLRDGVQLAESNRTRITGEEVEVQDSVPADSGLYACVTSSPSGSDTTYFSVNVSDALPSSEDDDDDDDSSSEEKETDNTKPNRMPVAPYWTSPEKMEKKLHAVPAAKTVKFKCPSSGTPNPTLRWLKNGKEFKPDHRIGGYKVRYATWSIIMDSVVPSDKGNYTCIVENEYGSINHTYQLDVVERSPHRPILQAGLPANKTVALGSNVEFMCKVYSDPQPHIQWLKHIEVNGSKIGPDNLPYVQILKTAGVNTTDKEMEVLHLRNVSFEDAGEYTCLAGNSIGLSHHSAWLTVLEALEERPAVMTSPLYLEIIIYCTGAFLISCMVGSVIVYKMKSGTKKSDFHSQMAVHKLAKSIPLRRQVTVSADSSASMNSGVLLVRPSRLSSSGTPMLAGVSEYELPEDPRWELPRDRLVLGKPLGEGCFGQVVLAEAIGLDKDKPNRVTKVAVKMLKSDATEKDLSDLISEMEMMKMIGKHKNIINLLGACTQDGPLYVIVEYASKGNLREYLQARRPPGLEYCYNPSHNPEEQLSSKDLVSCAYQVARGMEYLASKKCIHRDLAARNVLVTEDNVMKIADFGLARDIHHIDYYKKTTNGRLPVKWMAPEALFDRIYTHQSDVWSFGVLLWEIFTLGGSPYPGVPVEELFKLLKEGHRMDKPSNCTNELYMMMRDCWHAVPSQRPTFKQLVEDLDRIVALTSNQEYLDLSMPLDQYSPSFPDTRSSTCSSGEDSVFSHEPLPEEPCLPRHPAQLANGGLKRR
Test: Ba/F3-FGFR1 (minus IL3) cellular proliferation assay, Alamar Blue
Format: cell-based
Conditions: minus IL3, 384 well
Protocol: Ba/F3-FGFR1 (Minus IL3 or Plus IL3) (Cellular Proliferation Assay) Cells were put in an incubator at 37° C. and 5% CO2. After 24 hours, 10 μl of Alamar Blue solution (0.5 mM K3Fe(CN)6, 0.5 mM KaFe(CN)6, 0.15 mM Resazurin and 100 mM Phosphate Buffer) was added to the wells, incubated for 4 hours at 37° C. and 5% CO2 before RFU's (Relative Fluorescence Units) (ex. 540 nm., em. 590 nm.) were measured in a flurorescence plate reader. […]
Property Measured: BAF3-FGFR 1 (MIN IL3) 384 well pIC50
Enter the number alone.

Some molecules with recorded BAF3-FGFR 1 (MIN IL3) 384 well pIC50:
{"Molecule": "COc1cc(OC)cc(N(CCCNC(C)C)c2ccc3ncc(-c4ccnc(NC(=O)OC(C)(C)C)c4)nc3c2)c1 [Compound 137]", "Data Value": 5.75}
{"Molecule": "COc1cc(OC)cc(N(CCCNCC(F)(F)F)c2ccc3ncc(-c4cnc(OC)nc4)nc3c2)c1 [Compound 26]", "Data Value": 5.13}
{"Molecule": "COc1cc(OC)cc(N(CCNC(C)C)c2ccc3ncc(N4CCC(CN)CC4)nc3c2)c1 [Compound 67]", "Data Value": 6.23}
{"Molecule": "COCCCN(c1cc(OC)cc(OC)c1)c1ccc2ncc(-c3ccn(C)c3)nc2c1 [Compound 3]", "Data Value": 5.91}
{"Molecule": "COc1cc(OC)cc(N(CC2CC2)c2ccc3ncc(C#Cc4ccncc4)nc3c2)c1 [Compound 23]", "Data Value": 5.09}
{"Molecule": "COc1cc(OC)cc(N(CCCNC(C)C)c2ccc3ncc(-c4ccnc(NC(=O)NC(C)C)c4)nc3c2)c1 [Compound 131]", "Data Value": 6.44}
{"Molecule": "COc1cc(OC)cc(N(CC2CC2)c2ccc3ncc(-n4cnc(C)c4)nc3c2)c1 [Compound 30]", "Data Value": 5.32}
{"Molecule": "CNC(=O)c1cc(-c2cnc3ccc(N(CCN4CCCC4=O)c4cc(OC)cc(OC)c4)cc3n2)ccn1 [Compound 25]", "Data Value": 5.05}
{"Molecule": "COc1cc(OC)cc(N(CC#Cc2ncccn2)c2ccc3ncc(-c4cccnc4)nc3c2)c1 [Compound 2]", "Data Value": 6.8}
{"Molecule": "COc1cc(OC)cc(N(CCCO)c2ccc3ncc(-c4ccc(F)nc4)nc3c2)c1 [Compound 117]", "Data Value": 6.67}

Now, please, on to the next molecule.
Look at this molecule and give its reported BAF3-FGFR 1 (MIN IL3) 384 well pIC50. COc1cc(OC)cc(N(CCO)c2ccc3ncc(-c4ccc(N)nc4)nc3c2)c1 [Compound 106] 6.455
